# TEST DESCRIPTION: Experimental lipophilicity by RP-TLC (RM0, logPTLC, hydrophobic index)
# ASSAY SETUP: logPTLC (experimental lipophilicity), from RM0 by calibration curve Equation (4)
Reported chromatographic logP by item:

Past entries and their recorded results:
COMPOUND	chromatographic logP
C=C(C)[C@@H]1CC[C@]2(COC(=O)c3cn(CCCOC4=C(Cl)C(=O)c5ccncc5C4=O)nn3)CC[C@]3(C)C(CCC4[C@@]5(C)CC[C@H](OC(C)=O)C(C)(C)C5CC[C@]43C)C12 (stereo partly drawn)	5.2
C=C(C)[C@@H]1CC[C@]2(COC(=O)c3cn(CCCO)nn3)CC[C@]3(C)C(CCC4[C@@]5(C)CC[C@H](OC(=O)CC)C(C)(C)C5CC[C@]43C)C12 (stereo partly drawn)	6.55
CC(=O)Nc1ccccc1 [Acetanilide, acetanilide, reference compound]	1.19

Value lookup for chromatographic logP; key = c1ccc2cc3ccccc3cc2c1 [Anthracene, anthracene, reference compound]
4.52

Please give the measured chromatographic logP for this compound: C=C(C)[C@@H]1CC[C@]2(COC(=O)c3cn(CCCOC4=C(Cl)C(=O)c5ccccc5C4=O)nn3)CC[C@]3(C)C(CCC4[C@@]5(C)CC[C@H](OC(=O)CC)C(C)(C)C5CC[C@]43C)C12 (stereo partly drawn)
5.77

Reported chromatographic logP, compound C=C(C)[C@@H]1CC[C@]2(COC(=O)c3cn(CCCO)nn3)CC[C@]3(C)C(CCC4[C@@]5(C)CCC(=O)C(C)(C)C5CC[C@]43C)C12 (stereo partly drawn) : ____
5.73

* * *

# TEST DESCRIPTION: Experimental lipophilicity by RP-TLC (RM0, logPTLC, hydrophobic index)
# ASSAY SETUP: RP-TLC, acetone / TRIS 0.2 M pH 7.4, extrapolated to zero acetone
EXPERIMENTAL ENDPOINT: RM0 (chromatographic parameter of lipophilicity)
Could you keep your reply to the number by itself?

Use these answered entries as a reference point.
COMPOUND	OBSERVED MEASUREMENT
c1ccc2cc3ccccc3cc2c1 [Anthracene, anthracene, reference compound]	3.48
C=C(C)[C@@H]1CC[C@]2(COC(=O)c3cn(CCCOC4=C(Cl)C(=O)c5cccnc5C4=O)nn3)CC[C@]3(C)C(CCC4[C@@]5(C)CCC(=O)C(C)(C)C5CC[C@]43C)C12 (stereo partly shown) [Compound 2]	3.64
C=C(C)[C@@H]1CC[C@]2(COC(=O)c3cn(CCCOC4=C(Cl)C(=O)c5ccncc5C4=O)nn3)CC[C@]3(C)C(CCC4[C@@]5(C)CCC(=O)C(C)(C)C5CC[C@]43C)C12 (stereo partly shown) [Compound 6]	3.59

From here, focus on the item given below.
Query (compound): CC(=O)Nc1ccccc1 [Acetanilide, acetanilide, reference compound] ; field requested: RM0 (chromatographic parameter of lipophilicity)
0.55

* * *

# TEST DESCRIPTION: Experimental lipophilicity by RP-TLC (RM0, logPTLC, hydrophobic index)
# ASSAY SETUP: φ0 = −RM0/b
EXPERIMENTAL ENDPOINT: hydrophobic index (φ0)
Write the number on its own, no unit after it.

Previously resolved entries follow.
COMPOUND	EXPERIMENTAL ENDPOINT	OBSERVED MEASUREMENT
C=C(C)[C@@H]1CC[C@]2(COC(=O)c3cn(CCCOC4=C(Cl)C(=O)c5ccncc5C4=O)nn3)CC[C@]3(C)C(CCC4[C@@]5(C)CCC(=O)C(C)(C)C5CC[C@]43C)C12 (some centres unmarked) [Compound 6]	hydrophobic index (φ0)	82.83
C=C(C)[C@@H]1CC[C@]2(COC(=O)c3cn(CCCOC4=C(Cl)C(=O)c5ccncc5C4=O)nn3)CC[C@]3(C)C(CCC4[C@@]5(C)CC[C@H](OC(C)=O)C(C)(C)C5CC[C@]43C)C12 (some centres unmarked) [Compound 7]	hydrophobic index (φ0)	83.48
C=C(C)[C@@H]1CC[C@]2(COC(=O)c3cn(CCCOC4=C(Cl)C(=O)c5cccnc5C4=O)nn3)CC[C@]3(C)C(CCC4[C@@]5(C)CC[C@H](O)C(C)(C)C5CC[C@]43C)C12 (some centres unmarked) [Compound 1]	hydrophobic index (φ0)	82.40

Recorded hydrophobic index (φ0) of C=C(C)[C@@H]1CC[C@]2(COC(=O)c3cn(CCCOC4=C(Cl)C(=O)c5ccccc5C4=O)nn3)CC[C@]3(C)C(CCC4[C@@]5(C)CC[C@H](O)C(C)(C)C5CC[C@]43C)C12 (some centres unmarked) [Compound 13] , please.
87.13

// query hydrophobic index (φ0) value for entry C=C(C)[C@@H]1CC[C@]2(COC(=O)c3cn(CCCOC4=C(Cl)C(=O)c5ccc(C)nc5C4=O)nn3)CC[C@]3(C)C(CCC4[C@@]5(C)CC[C@H](OC(=O)CC)C(C)(C)C5CC[C@]43C)C12 (some centres unmarked) [Compound 12]
88.32

Give its hydrophobic index (φ0) value. Item: C=C(C)[C@@H]1CC[C@]2(COC(=O)c3cn(CCCOC4=C(Cl)C(=O)c5ccc(C)nc5C4=O)nn3)CC[C@]3(C)C(CCC4[C@@]5(C)CC[C@H](OC(C)=O)C(C)(C)C5CC[C@]43C)C12 (some centres unmarked) [Compound 11]
85.94

* * *

# TEST DESCRIPTION: Experimental lipophilicity by RP-TLC (RM0, logPTLC, hydrophobic index)
# ASSAY SETUP: RP-TLC, acetone / TRIS 0.2 M pH 7.4, extrapolated to zero acetone
EXPERIMENTAL ENDPOINT: RM0 (chromatographic parameter of lipophilicity)
Form: value (number only, do not type unit).

Below are worked cases with known answers.
MOLECULE	OBSERVED MEASUREMENT
C=C(C)[C@@H]1CC[C@]2(COC(=O)c3cn(CCCOC4=C(Cl)C(=O)c5ccccc5C4=O)nn3)CC[C@]3(C)C(CCC4[C@@]5(C)CC[C@H](O)C(C)(C)C5CC[C@]43C)C12 (some centres unmarked)	3.78
C=C(C)[C@@H]1CC[C@]2(COC(=O)c3cn(CCCOC4=C(Cl)C(=O)c5ccccc5C4=O)nn3)CC[C@]3(C)C(CCC4[C@@]5(C)CC[C@H](OC(C)=O)C(C)(C)C5CC[C@]43C)C12 (some centres unmarked)	4.21
C=C(C)[C@@H]1CC[C@]2(COC(=O)c3cn(CCCOC4=C(Cl)C(=O)c5cccnc5C4=O)nn3)CC[C@]3(C)C(CCC4[C@@]5(C)CC[C@H](OC(C)=O)C(C)(C)C5CC[C@]43C)C12 (some centres unmarked)	3.97
C=C(C)[C@@H]1CC[C@]2(COC(=O)c3cn(CCCOC4=C(Cl)C(=O)c5ccc(C)nc5C4=O)nn3)CC[C@]3(C)C(CCC4[C@@]5(C)CC[C@H](OC(=O)CC)C(C)(C)C5CC[C@]43C)C12 (some centres unmarked)	4.39

Continue with the molecule presented below.
Fill blank: measured RM0 (chromatographic parameter of lipophilicity) of the molecule C=C(C)[C@@H]1CC[C@]2(COC(=O)c3cn(CCCOC4=C(Cl)C(=O)c5ccncc5C4=O)nn3)CC[C@]3(C)C(CCC4[C@@]5(C)CC[C@H](OC(=O)CC)C(C)(C)C5CC[C@]43C)C12 (some centres unmarked) is ____.
4.24

* * *

# TEST DESCRIPTION: Experimental lipophilicity by RP-TLC (RM0, logPTLC, hydrophobic index)
# ASSAY SETUP: RP-TLC, acetone / TRIS 0.2 M pH 7.4, extrapolated to zero acetone
Form field: RM0 (chromatographic parameter of lipophilicity) (one value per entry).
The response must contain the number and no unit.

MOLECULE	OBSERVED MEASUREMENT
C=C(C)[C@@H]1CC[C@]2(COC(=O)c3cn(CCCO)nn3)CC[C@]3(C)C(CCC4[C@@]5(C)CC[C@H](OC(=O)CC)C(C)(C)C5CC[C@]43C)C12 (some centres unmarked)	5.26

Would you kindly share the measured RM0 (chromatographic parameter of lipophilicity) for C=C(C)[C@@H]1CC[C@]2(COC(=O)c3cn(CCCO)nn3)CC[C@]3(C)C(CCC4[C@@]5(C)CC[C@H](O)C(C)(C)C5CC[C@]43C)C12 (some centres unmarked) ?
4.40

Entry C=C(C)[C@@H]1CC[C@]2(COC(=O)c3cn(CCCO)nn3)CC[C@]3(C)C(CCC4[C@@]5(C)CC[C@H](OC(C)=O)C(C)(C)C5CC[C@]43C)C12 (some centres unmarked) has what RM0 (chromatographic parameter of lipophilicity)?
5.07

Please report the recorded RM0 (chromatographic parameter of lipophilicity) for C=C(C)[C@@H]1CC[C@]2(COC(=O)c3cn(CCCOC4=C(Cl)C(=O)c5ccc(C)nc5C4=O)nn3)CC[C@]3(C)C(CCC4[C@@]5(C)CC[C@H](OC(C)=O)C(C)(C)C5CC[C@]43C)C12 (some centres unmarked) .
4.12

Look up RM0 (chromatographic parameter of lipophilicity) for this molecule: Clc1ccc(C(c2ccc(Cl)cc2)C(Cl)(Cl)Cl)cc1 [DDT, dichlorodiphenyltrichloroethane, reference compound]
4.87

These entries and their values trace back to paper PMC8224687.
